Quick reference for pKi among some compounds
- Assay System: human recombinant dopamine D3 receptor (Homo sapiens)
- Assay Summary: inhibition of [125I]iodosulpride binding, D3 receptor
- Protocol Conditions: [125I]iodosulpride binding, cells expressing human recombinant receptor; read-out: affinity for the D3 receptor
pKi: −log10 of the molar value.
Metric: pKi

Compound | Assay System | Metric | Measured Number
N#Cc1cccc(N2CCN(CCCCNC(=O)C3=Cc4ccccc4CC3)CC2)c1 | human recombinant dopamine D3 receptor (Homo sapiens) | pKi | 8.68
O=C(NCCCCN1CCN(c2cccc(O)c2)CC1)C1=Cc2ccccc2CC1 | human recombinant dopamine D3 receptor (Homo sapiens) | pKi | 9.15
O=C(NCCCCN1CCN(c2cccc(O)c2)CC1)c1ccc2ccccc2c1 [reference compound] | human recombinant dopamine D3 receptor (Homo sapiens) | pKi | 9.13

* * *

- Assay System: human D3 receptor (Homo sapiens, UniProt P35462)
- Sequence (P35462 whole entry): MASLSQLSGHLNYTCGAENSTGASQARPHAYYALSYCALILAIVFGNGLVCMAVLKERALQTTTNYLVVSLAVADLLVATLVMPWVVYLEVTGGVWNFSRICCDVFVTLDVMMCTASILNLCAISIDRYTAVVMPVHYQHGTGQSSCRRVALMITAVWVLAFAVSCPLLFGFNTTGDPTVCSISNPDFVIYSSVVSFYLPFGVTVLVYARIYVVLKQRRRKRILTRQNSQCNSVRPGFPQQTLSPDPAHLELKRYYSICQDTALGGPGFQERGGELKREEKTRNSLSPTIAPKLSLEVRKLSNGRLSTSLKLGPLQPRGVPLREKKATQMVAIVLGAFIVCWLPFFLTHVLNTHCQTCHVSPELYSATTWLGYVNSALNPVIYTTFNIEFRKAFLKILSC
- Assay Summary: mitogenesis assay, [3H]thymidine incorporation in NG 108-15 cells expressing the D3 receptor
- Protocol Conditions: NG 108-15 cells transfected with the human D3 receptor; read-out: 50% effective concentration (EC50), mitogenesis
Metric: EC50 (nM)

Molecule Smiles | Measured Number
N#Cc1cccc(N2CCN(CCCCNC(=O)C3=Cc4ccccc4CC3)CC2)c1 | 6.3
O=C(NCCCCN1CCN(c2cccc(O)c2)CC1)C1=Cc2ccccc2CC1 | 2.2

* * *

- Assay System: human recombinant dopamine D2 receptor (Homo sapiens)
- Sequence (P14416 whole entry): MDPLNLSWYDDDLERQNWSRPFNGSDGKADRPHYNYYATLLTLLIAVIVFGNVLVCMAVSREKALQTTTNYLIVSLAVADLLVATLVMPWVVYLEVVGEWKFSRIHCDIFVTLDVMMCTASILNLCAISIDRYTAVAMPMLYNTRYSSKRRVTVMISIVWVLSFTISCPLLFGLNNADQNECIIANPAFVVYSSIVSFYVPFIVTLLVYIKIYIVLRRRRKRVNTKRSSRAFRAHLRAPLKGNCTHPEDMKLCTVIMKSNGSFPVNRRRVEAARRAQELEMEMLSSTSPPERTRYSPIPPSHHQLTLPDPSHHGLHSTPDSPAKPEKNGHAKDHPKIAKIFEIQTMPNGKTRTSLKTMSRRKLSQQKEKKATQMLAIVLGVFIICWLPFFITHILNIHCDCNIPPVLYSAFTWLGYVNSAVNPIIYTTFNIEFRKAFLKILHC
- Assay Summary: inhibition of [125I]iodosulpride binding, D2 receptor
- Protocol Conditions: cells expressing human recombinant receptor, read-out: affinity for the D2 receptor
- Experimental: The activity of the derivatives of formula (I) according to the invention was evaluated with respect to cells expressing human recombinant dopamine receptors. The inhibition constants (Ki) were measured by inhibition of [^125I]iodosulpride binding as described by Sokoloff et al. (1992). The degree of stimulation of the D3 receptor was determined by measuring the incorporation of [^3H]-thymidine in NG 108-15 cells expressing the D3 receptor (Pilon et al., 1994; Sautel et al., 1995).

Molecule | Assay System | Reading Unit | Ki
N#Cc1cccc(N2CCN(CCCCNC(=O)C3=Cc4ccccc4CC3)CC2)c1 [I-28] | human recombinant dopamine D2 receptor (Homo sapiens) | nM | 318
O=C(NCCCCN1CCN(c2cccc(O)c2)CC1)c1ccc2ccccc2c1 [reference compound] | human recombinant dopamine D2 receptor (Homo sapiens) | nM | 44
